Data origin: patent US20240270821A1

- tgt: hGLP-1R (Homo sapiens, UniProt P43220)
- Sequence (P43220 24-463): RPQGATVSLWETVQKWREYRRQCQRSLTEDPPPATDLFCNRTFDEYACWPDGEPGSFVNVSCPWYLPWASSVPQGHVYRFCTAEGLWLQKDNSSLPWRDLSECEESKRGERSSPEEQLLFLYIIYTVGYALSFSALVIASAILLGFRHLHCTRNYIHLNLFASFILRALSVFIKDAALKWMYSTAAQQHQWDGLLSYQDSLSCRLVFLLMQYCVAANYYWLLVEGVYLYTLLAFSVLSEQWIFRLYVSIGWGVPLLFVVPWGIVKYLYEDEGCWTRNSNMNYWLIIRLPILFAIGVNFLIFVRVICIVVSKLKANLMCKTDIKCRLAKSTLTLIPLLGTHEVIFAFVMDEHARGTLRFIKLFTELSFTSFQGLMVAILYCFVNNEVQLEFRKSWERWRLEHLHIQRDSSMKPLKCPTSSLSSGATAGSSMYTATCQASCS
- testProtocol: cell-based or functional assay
Please use 1 for cAMP Rel EC50 (in the presence of 1% HSA) under 400 nM and -1 for everything else, ties included.

These recorded examples may help you get a feel for the data.
Does this binder meet the criterion cAMP Rel EC50 (in the presence of 1% HSA) < 400 nM? YXQGTFTSDXSKXLDKKAQXAFIEYLIAXGESSGAPPPSGS (non-natural residues; C18 diacid-γGlu-AEEA on Lys; C-terminal amide; synthetic construct; SITE 2: note = 2-Aminoisobutyric Acid; SITE 10: note = 3-(4-Pyridyl)-L-alanine; SITE 13: note = alpha-methyl-leucine; SITE 17: note = Lysine is chemically modified through conjugation of the epsilon-amino group of the Lysine side chain with (2-[2-(2-Amino-ethoxy)-ethoxy]-acetyl)) [Example 285]
1

For YXQGTFTSDFSRXLDKKAQXAFIEYLLEGGPSSGAPPPGGS (synthetic construct; SITE 2: note = 2-Aminoisobutyric Acid; SITE 13: note = alpha-methyl-leucine; SITE 17: note = Lysine is chemically modified through conjugation of the epsilon-amino group of the Lysine side chain with (2-[2-(2-Amino-ethoxy)-ethoxy]-acetyl)-(gamma-Glu)-CO-(CH2) 18-CO2H; SITE 20: n) [Example 41] , is the recorded cAMP Rel EC50 (in the presence of 1% HSA) below the cut-off of 400 nM?
-1

***
Lab note: confirm whether the reported cAMP Rel EC50 (in the presence of 1% HSA) for this binder is below 400 nM, equality not counting. binder: YXQGTXTSDXXIXLDXKAQXEFIEXLVEGGPSSGAPPPSGE (non-natural residues; lipidated Lys; C-terminal amide; synthetic construct; SITE 2: note = 2-Aminoisobutyric Acid; SITE 6: note = alpha-methyl-2-fluoro-L-phenylalanine; SITE 10: note = 3-(4-Pyridyl)-L-alanine; SITE 11: note = alpha-methyl-L-serine; SITE 13: note = alpha-methyl-leucine; SITE 16: note = L-ornithine; SITE 17: note = Lysine is chemically mo) [Example 1160]
1

Lab log: compare recorded cAMP Rel EC50 (in the presence of 1% HSA) with 400 nM; is it strictly lower for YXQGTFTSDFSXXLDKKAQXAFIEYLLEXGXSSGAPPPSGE (Aib, Orn, αMeL, 4Pal; lysine acylated C18 diacid; C-terminal amide; synthetic construct; SITE 2: note = 2-Aminoisobutyric Acid; SITE 12: note = L-ornithine; SITE 13: note = alpha-methyl-leucine; SITE 17: note = Lysine is chemically modified through conjugation of the epsilon-amino group of the Lysine side chain with (2-[2-(2-Amino-ethoxy)-ethoxy]-acetyl)-(gamma-Glu)) [Example 248] ?
-1

Please determine if YXQGTXTSDXXIXLDXKAQXEFIEXLIEGGPPSXXPPPXGE (non-natural residues; lipidated Lys; C-terminal amide; synthetic construct; SITE 2: note = 2-Aminoisobutyric Acid; SITE 6: note = alpha-methyl-2-fluoro-L-phenylalanine; SITE 10: note = 3-(4-Pyridyl)-L-alanine; SITE 11: note = alpha-methyl-L-serine; SITE 13: note = alpha-methyl-leucine; SITE 16: note = L-ornithine; SITE 17: note = Lysine is chemically mo) [Example 1195] is below 400 nM in terms of cAMP Rel EC50 (in the presence of 1% HSA).
1
